# tested.on: human Retinoid X Receptor beta (RXRb), RXRB (gene 6257) (UniProt P28702)
# Sequence (P28702 whole entry, looked up): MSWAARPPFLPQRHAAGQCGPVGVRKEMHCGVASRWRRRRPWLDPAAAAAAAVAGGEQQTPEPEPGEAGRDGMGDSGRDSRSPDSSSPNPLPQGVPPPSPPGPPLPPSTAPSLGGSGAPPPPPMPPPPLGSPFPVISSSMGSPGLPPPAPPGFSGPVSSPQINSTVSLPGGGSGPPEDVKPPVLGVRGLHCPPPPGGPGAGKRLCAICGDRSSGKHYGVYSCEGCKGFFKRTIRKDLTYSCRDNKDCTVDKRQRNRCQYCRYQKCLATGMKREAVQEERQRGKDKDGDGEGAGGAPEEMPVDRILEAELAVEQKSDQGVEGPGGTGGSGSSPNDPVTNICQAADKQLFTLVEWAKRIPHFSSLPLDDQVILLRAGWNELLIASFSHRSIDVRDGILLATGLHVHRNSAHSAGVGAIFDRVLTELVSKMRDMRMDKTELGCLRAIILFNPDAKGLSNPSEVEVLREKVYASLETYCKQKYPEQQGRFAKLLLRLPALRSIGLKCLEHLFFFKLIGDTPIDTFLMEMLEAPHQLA
# assay.protocol: ATG_RXRb_TRANS: Attagene TRANS-FACTORIAL HepG2 Assay for human Retinoid X Receptor beta (RXRb) (AID 2283013)
Results filed as inconclusive are left out. The source made the active and inactive calls. Rule for the calls: active = hit-call score of the fitted dose curve at least 0.9, where 1 is the maximum; inconclusive = response in the unintended direction; inactive = score below 0.9.
Classes used: yes (1) (active), no (0) (inactive)

* ClC(Cl)=C(Cl)C(Cl)=C(Cl)Cl | no (0)
* O=[N+]([O-])c1ccc2c3c(cccc13)CC2 | yes (1)
* CC(=O)C(Cl)C(=O)N(C)C (centres undefined) | no (0)
* CC1CN1P(=O)(N1CC1C)N1CC1C (centres undefined) | no (0)
* O=C/C=C/c1ccccc1 | no (0)
* COS(=O)(=O)c1ccc(C)cc1 | no (0)
* Cl/C=C/Cl | no (0)
* Nc1cccc2ccccc12 | no (0)
* O=C1C(Cl)=C(Cl)C(=O)c2ccccc21 | no (0)
* CC(=O)c1cc(C(C)(C)C)cc2c1CCC2(C)C | yes (1)
* CCCCOCCOC(C)=O | no (0)
* O=Cc1cccc(Oc2ccccc2)c1 | no (0)
* COc1ccc(OC)c(C=O)c1 | no (0)
* CC(=O)C=C(C)C | no (0)
* Nc1ccc(-c2ccc(N)c(Cl)c2)cc1Cl | yes (1)
* COC(=O)c1sccc1S(=O)(=O)NC(=O)Nc1nc(C)nc(OC)n1 | no (0)
* NNC(=S)NN | no (0)
* CC(C)C1CCC(Cc2ccc(Cl)cc2)C1(O)Cn1cncn1 (centres undefined) | no (0)
* ClCC(Cl)CCl | no (0)
* BrCCBr | yes (1)
* C[C@@H](Oc1ccc(Cl)cc1Cl)C(=O)O | no (0)
* CCCCCCCCSC(=O)Oc1cc(Cl)nnc1-c1ccccc1 | no (0)
* Nc1ncc([N+](=O)[O-])s1 | no (0)
* O=C(OC1CCCCC1)c1ccccc1C(=O)OC1CCCCC1 | yes (1)

====

# assay.protocol: BSK_MyoF_SRB: Viability Assessment in the BioMAP Diversity Plus: MyoF Assay (AID 2284267);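 note: total protein by SRB absorbance in parallel cultures as cytotoxicity measure; cells assessed 24 h after compound addition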
# condition.info: primary human lung fibroblasts
Calls of active or inactive are those of the source. Rule for the calls: active = hit-call score of the fitted dose curve at least 0.9, where 1 is the maximum; inactive = score below 0.9.
Labels: active, inactive

* CCNc1nc(NC(C)(C)C)nc(SC)n1 | inactive
* COP(=S)(OC)Oc1cc(Cl)c(Cl)cc1Cl | inactive
* Oc1c(I)cc(I)cc1I | active
* O=C(OC1CCCCC1)c1ccccc1C(=O)OC1CCCCC1 | active
* OCc1ccco1 | inactive
* O=C(O)CCC(F)(C(F)(F)F)C(F)(F)F | inactive
* CCOP(=S)(OCC)Oc1ccc(S(C)=O)cc1 (stereo not drawn) | inactive
* O=C(O)C(F)(F)C(F)(F)C(F)(F)C(F)(F)C(F)(F)C(F)(F)F | inactive
* O=S(=O)(c1ccc(Cl)cc1)c1ccc(Cl)cc1 | inactive
* ClC(Cl)=C(Cl)C(Cl)=C(Cl)Cl | inactive
* C(=NC1CCCCC1)=NC1CCCCC1 | active
* COC[C@H](C)N(C(=O)CCl)c1c(C)csc1C | inactive
* O=[N+]([O-])c1ccc2c3c(cccc13)CC2 | inactive
* CCOC(=O)/C=C(C)/C=C/C[C@@H](C)CCCC(C)C | active
* BrCCBr | inactive
* CCCCCCCCC(=O)NCc1ccc(O)c(OC)c1 | inactive
* Nc1cccc2ccccc12 | inactive
* COP(=S)(OC)Oc1ccc(Sc2ccc(OP(=S)(OC)OC)cc2)cc1 | inactive

====

# assay.protocol: CPHEA_Stoker_NIS_Cytotoxicity: Cytotoxicity Assessment for CPHEA's Radioactive Iodide Uptake (RAIU) Assay for Sodium/Iodide Symporter (NIS) Inhibition, Stoker and Laws Labs (AID 2283897);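 for AC50: active means loss of ATP signal versus DMSO meaning cytotoxicity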
Calls of active or inactive are those of the source. Rule for the calls: active = hit-call score of the fitted dose curve at least 0.9, where 1 is the maximum; inconclusive = response in the unintended direction; inactive = score below 0.9.
property.measured: AC50

* O=C1C(Cl)=C(Cl)C(=O)c2ccccc21 | 50 µM (active)
* Clc1ccc(COC(Cn2ccnc2)c2ccc(Cl)cc2Cl)cc1 (stereo not drawn) | 72.6 µM (active)
* O=C/C=C/c1ccccc1 | inactive
* NNC(=S)NN | inactive
* CC(=O)[O][Hg][c]1ccccc1 | 9.92 µM (active)
* Cn1sc(Cl)cc1=O | inactive
* CC1(C)CCC(Cc2ccc(Cl)cc2)C1(O)Cn1cncn1 (stereo not drawn) | inactive
* Cc1ccccc1C(=O)Nc1cccc(OC(C)C)c1 | inactive
* c1cc[c]([Hg][c]2ccccc2)cc1 | inactive
* CCC[CH2][Sn]([CH2]CCC)([CH2]CCC)[O]C(=O)c1ccccc1 | 9.05 µM (active)
* CC(C)C1CCC(Cc2ccc(Cl)cc2)C1(O)Cn1cncn1 (stereo not drawn) | 87.6 µM (active)
* CC(C)(c1ccc(OCC2CO2)cc1)c1ccc(OCC2CO2)cc1 (stereo not drawn) | inactive
* C=C(C)C(=O)[O][Sn]([CH2]CCC)([CH2]CCC)[CH2]CCC | 1.25 µM (active)

====

# assay.protocol: BSK_4H_Eotaxin3: BioMAP Diversity Plus: 4H Assay for Eotaxin 3 Biomarker Activity (AID 2283000)
# condition.info: primary human endothelial cells (HUVEC); actives raise or lower the signal
Active and inactive are the calls of the source. How the source made its calls: active means hit-call score of the fitted dose curve at least 0.9, where 1 is the maximum; inactive means score below 0.9.
Classes used: label 1 (active), label 0 (inactive)

- CC(C)c1ccc(CO)cc1: label 0
- Cc1ccccc1N: label 0
- CCCCC(CC)CO[N+](=O)[O-] (stereo unspecified): label 1
- CCC(C)(C)c1ccc(O)c(C(C)(C)CC)c1: label 1
- CCN1CCC2(CC1)COc1cc3c(cc12)N(C(=O)c1ccc(-c2ccc(-c4nnc(C)o4)cc2C)cc1)CC3: label 1
- CC(C)(C)c1cc(O)ccc1O: label 1

====

# Read-out: Monocyte Chemoattractant Protein-1 (MCP1), CCL2 (gene 6347)
# assay.protocol: BSK_SAg_MCP1: BioMAP Diversity Plus: SAg Assay for Monocyte Chemoattractant Protein-1 (MCP1) Biomarker Activity (AID 2283090)
# condition.info: primary human HUVEC with PBMC; actives raise or lower the signal
Active and inactive are the calls of the source. How the source made its calls: active means hit-call score of the fitted dose curve at least 0.9, where 1 is the maximum; inactive means score below 0.9.
Classes used: active, inactive

* CC1(C)Cc2cccc(O)c2O1 | inactive
* ClC1=C(Cl)[C@]2(Cl)[C@H]3[C@H]([C@H]4C=C[C@H]3C4)[C@@]1(Cl)C2(Cl)Cl | inactive
* CCCCCCCCc1ccc(O)cc1 | active
* CC(=O)[O][Hg][c]1ccccc1 | active
* O=C(O)C(F)(F)C(F)(F)C(F)(F)C(F)(F)C(F)(F)C(F)(F)F | inactive
* ClC1(Cl)C2(Cl)C3(Cl)C4(Cl)C(Cl)(Cl)C5(Cl)C3(Cl)C1(Cl)C5(Cl)C24Cl (stereo unspecified) | inactive

====

# assay.protocol: BSK_KF3CT_SRB: Viability Assessment in the BioMAP Diversity Plus: KF3CT Assay (AID 2283069);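 note: total protein by sulforhodamine B staining as a cytotoxicity measure; read 24 h after compound addition; fitted for both signal gain and loss against DMSO baseline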
# condition.info: primary human keratinocytes with fibroblasts
Activity calls are given as the source filed them. How the source made its calls: active means hit-call score of the fitted dose curve at least 0.9, where 1 is the maximum; inactive means score below 0.9.
Outcomes: class 1 for active, class 0 for inactive

- CC(C)(C)CC(C)(C)c1ccc(O)cc1: class 1
- O=C(O)CCC(F)(C(F)(F)F)C(F)(F)F: class 0
- CCCCCCCCC(=O)NCc1ccc(O)c(OC)c1: class 0
- O=C(Nc1ccc2[nH]ccc2c1)c1cc2cc(F)ccc2n1Cc1cccc(F)c1: class 1
- COP(=S)(OC)Oc1ccc(Sc2ccc(OP(=S)(OC)OC)cc2)cc1: class 0
- CCOP(=S)(OCC)Oc1nc(Cl)c(Cl)cc1Cl: class 0

====

# assay.protocol: ATG_E_Box_CIS: Attagene CIS-FACTORIAL HepG2 Assay for human Enhancer Box (E-box) (AID 2282936)
# condition.info: HepG2 E-box cis-reporter transcription, actives raise or lower the signal
Activity calls are given as the source filed them. How the source made its calls: active means hit-call score of the fitted dose curve at least 0.9, where 1 is the maximum; inactive means score below 0.9.
Outcome codes: active, inactive

• C1CCC(NC2CCCCC2)CC1 = inactive
• O=C(Cc1ccccc1)c1ccccc1 = inactive
• CNC(=O)O/N=C/C(C)(C)S(C)=O (stereo not drawn) = inactive
• CCCCCCCCc1ccc(O)cc1 = inactive
• O=C(CCl)CCl = active
• Cl/C=C/Cl = inactive
• C[C@H]1CCCC(=O)CCC/C=C/c2cc(O)cc(O)c2C(=O)O1 = inactive
• O=S(=O)(c1ccc(Cl)cc1)c1ccc(Cl)cc1 = inactive

====

# tested.on: Estrogen receptor (Homo sapiens) (UniProt P03372)
# Sequence (P03372 whole entry, looked up, the tested form may be a part): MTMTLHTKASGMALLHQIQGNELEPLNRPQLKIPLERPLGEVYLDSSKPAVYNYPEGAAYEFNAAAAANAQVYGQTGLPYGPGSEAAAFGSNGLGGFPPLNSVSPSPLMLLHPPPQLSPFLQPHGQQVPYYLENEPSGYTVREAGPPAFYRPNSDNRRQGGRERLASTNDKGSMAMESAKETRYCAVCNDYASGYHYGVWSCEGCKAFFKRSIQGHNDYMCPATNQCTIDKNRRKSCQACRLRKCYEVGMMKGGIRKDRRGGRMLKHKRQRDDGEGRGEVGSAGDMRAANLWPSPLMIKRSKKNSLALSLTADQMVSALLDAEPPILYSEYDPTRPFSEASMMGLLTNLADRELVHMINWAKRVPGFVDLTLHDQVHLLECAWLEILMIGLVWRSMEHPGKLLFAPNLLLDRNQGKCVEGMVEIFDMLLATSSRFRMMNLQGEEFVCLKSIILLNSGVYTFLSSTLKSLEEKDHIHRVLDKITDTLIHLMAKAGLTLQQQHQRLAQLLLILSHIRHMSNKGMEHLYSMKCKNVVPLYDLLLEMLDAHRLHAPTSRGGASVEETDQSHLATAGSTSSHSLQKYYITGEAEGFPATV
# assay.protocol: OT_ER_ERaERa_0480: Odyssey Thera (OT) 8-hour HEK293T Protein-Complementation Assay for Estrogen Receptor-alpha/-alpha Homodimer (AID 2283351);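 note: rise in fluorescence from reassembled reporter fragments on ERα LBD homodimer in nucleus or whole cell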
Records with an inconclusive call do not appear. Active and inactive are the calls of the source. Rule for the calls: active = hit-call score of the fitted dose curve at least 0.9, where 1 is the maximum; inconclusive = response in the unintended direction; inactive = score below 0.9.
Classes used: active, inactive

* [O-][Cl+2]([O-])O | inactive
* C=CC#N | inactive
* c1cc[c]([Hg][c]2ccccc2)cc1 | inactive
* CCC1(c2ccc(N)cc2)CCC(=O)NC1=O (configuration not stated) | inactive
* Clc1ccc(COC(Cn2ccnc2)c2ccc(Cl)cc2Cl)cc1 (configuration not stated) | inactive
* COc1cc(OC)nc(NC(=O)NS(=O)(=O)c2ncccc2C(=O)N(C)C)n1 | inactive
* OCC(O)CCl (configuration not stated) | inactive
* NC(=O)O | inactive
* CNC | inactive
* N#CN=C(N)N | inactive
* Cc1ccccc1C(=O)Nc1cccc(OC(C)C)c1 | inactive
* BrCCBr | inactive
* CC(C#N)CCC#N (configuration not stated) | inactive
* O=C1CCCN1 | inactive
* Fc1ccc(C2(Cn3cncn3)OC2c2ccccc2Cl)cc1 (configuration not stated) | active
* O=C/C=C/c1ccccc1 | inactive
* O=C1C(Cl)=C(Cl)C(=O)c2ccccc21 | active
* COP(=O)(OC)O/C(=C\Cl)c1cc(Cl)c(Cl)cc1Cl | inactive
* O=C(Nc1ccc2[nH]ccc2c1)c1cc2cc(F)ccc2n1Cc1cccc(F)c1 | inactive
* CC(=O)c1cc(C(C)(C)C)cc2c1CCC2(C)C | inactive
* CC(=O)[O][Hg][c]1ccccc1 | inactive
* CCCCCCCCSC(=O)Oc1cc(Cl)nnc1-c1ccccc1 | inactive
